# Tested on: HIV
# Method notes: MT4 assay: antiviral HIV activity (cell protection, cell titer glo readout at 96 hours)
# Format: cell-based
# Test context: Human immunodeficiency virus 1, MT4, 96 h, MT4 cells, cell titer glo readout at 96 hours, 10 point dose response; read-out: HIV MT4 Assay IC50
Recorded metric: IC50 (nM)
Your answer should be a plain number; it is taken to be in nM.

>>> endpoint_result("Cc1nc2c(cc(C(=O)N3CCN(C)CC3)n2C)c(-c2cc(F)c3c(c2C)CCCO3)c1[C@H](OC(C)(C)C)C(=O)O [Example 173]")
354
>>> endpoint_result("Cc1cc(COc2cc(-c3cc4c(-c5cc(F)c6c(c5C)CCCO6)c([C@H](OC(C)(C)C)C(=O)O)c(C)nc4n3C)ccn2)ccn1 [Example 73]")
3.8

Could you now consider this next compound?
Query: What value of IC50 has been recorded for this entry: COCC1CCCN1C1CCN(c2nnc(-c3cc4c(-c5cc(F)c6c(c5C)CCCO6)c([C@H](OC(C)(C)C)C(=O)O)c(C)nc4n3C)o2)CC1 (stereo partly drawn) [Example 339]
Response: 28.8

Each recorded value in this set is attributed to patent US20150191469A1.
